experiment: Stability of the compounds in aqueous solution (percent residue by high pressure liquid chromatography); format: physicochemical; conditions: Time 0 (taken as 100%); 0.5 (w/w) % in water, 40°±1° C.
Where a name gives a salt, the structure may show the parent alone.
quantity.measured: Percent residue in aqueous solution
Kindly write the number and append the unit.

Example results:
>>> result("N=C(N)Nc1ccc(CCCC(=O)N[C@@H](CO)C(=O)NCCCCNCCCN)cc1 [Compound 1, trihydrochloride]")
"100%"
>>> result("N=C(N)NCCCCC(O)CC(=O)NC(O)C(=O)NCCCCNCCCN (stereo not drawn) [Spergualin]")
"100%"

Okay, now this molecule:
Consider the molecule N=C(N)Nc1ccc(CCCCC(=O)N[C@@H](CO)C(=O)NCCCCNCCCN)cc1 [Compound 6, trihydrochloride] and give its measured Percent residue in aqueous solution.
100%
